Origin of measurements: patent US11279733B2

assay.comment: in vitro
protocol.conditions: human
Positions of bridges follow the written chain, without caps; N, C: chain ends. Non-standard residues stand in square brackets, D forms with d. Residues, ends and D or L forms follow the SMILES beside them. *: point of attachment. Decanoyl(3R-OH) = CCCCCCC[C@@H](O)CC(=O)*; 2Nal = N[C@@H](Cc1ccc2ccccc2c1)C(=O)O; dIgl = N[C@@H](C(=O)O)C1Cc2ccccc2C1; 3Pal = N[C@@H](Cc1cccnc1)C(=O)O; dDab = NCC[C@@H](N)C(=O)O; Octanoyl = CCCCCCCC(=O)*; Dab = NCC[C@H](N)C(=O)O
Below: a set of entries, each annotated with reported CC50 at 24 h.
property.label: CC50 at 24 h (µM)

{"columns": ["molecule", "property.label", "value.prefix", "reported.value"],
 "data": [
  ["CCCCCCC[C@@H](O)CC(=O)N[C@H](CCN)C(=O)N[C@H]1CCNC(=O)[C@H](Cc2c[nH]c3ccccc23)NC(=O)[C@H](CCN)NC(=O)[C@H](CCN)NC(=O)[C@H](Cc2ccc3ccccc3c2)NC(=O)[C@@H](Cc2ccccc2)NC(=O)[C@H](CCN)NC1=O [compound 8832] ({Decanoyl(3R-OH)}-[dDab][Dab][Dab][dF][2Nal][Dab][Dab]W; lactam 2-C)", "CC50 at 24 h", "=", 26],
  ["CCCCCCCC(=O)N[C@H](CCN)C(=O)N[C@H]1CCNC(=O)[C@H](Cc2c[nH]c3ccccc23)NC(=O)[C@H](CCN)NC(=O)[C@H](CCN)NC(=O)[C@H](CC(C)C)NC(=O)[C@@H](C2Cc3ccccc3C2)NC(=O)[C@H](CCN)NC1=O [compound 8900] (Octanoyl-[dDab][Dab][Dab][dIgl]L[Dab][Dab]W; lactam 2-C)", "CC50 at 24 h", "=", 115],
  ["CCCCCCC[C@@H](O)CC(=O)N[C@H](CCN)C(=O)N[C@H]1CCNC(=O)[C@H](Cc2cccnc2)NC(=O)[C@H](CCN)NC(=O)[C@H](CCN)NC(=O)[C@H](CC(C)C)NC(=O)[C@@H](Cc2ccccc2)NC(=O)[C@H](CCN)NC1=O [compound 8907] ({Decanoyl(3R-OH)}-[dDab][Dab][Dab][dF]L[Dab][Dab][3Pal]; lactam 2-C)", "CC50 at 24 h", ">", 300]
]}

###

System: K. pneumoniae GN_106, PmxR
protocol.conditions: GN 106, PmxR
Positions of bridges follow the written chain, without caps; N, C: chain ends. Non-standard residues stand in square brackets, D forms with d. Residues, ends and D or L forms follow the SMILES beside them. *: point of attachment. Decanoyl(3R-OH) = CCCCCCC[C@@H](O)CC(=O)*; dBip = N[C@H](Cc1ccc(-c2ccccc2)cc1)C(=O)O; dDab = NCC[C@@H](N)C(=O)O; Dab = NCC[C@H](N)C(=O)O; Dap = NC[C@H](N)C(=O)O
property.label: MIC K. pneumoniae GN_106, PmxR

{"columns": ["compound", "reported.value"],
 "data": [
  ["CCCCCCC[C@@H](O)CC(=O)N[C@H](CCN)C(=O)N[C@H]1CCNC(=O)[C@H](CC(C)C)NC(=O)[C@H](CCN)NC(=O)[C@H](CCN)NC(=O)[C@@H](Cc2ccccc2)NC(=O)[C@H](CC(C)C)NC(=O)[C@H](CCN)NC1=O [compound 9194] ({Decanoyl(3R-OH)}-[dDab][Dab][Dab]L[dF][Dab][Dab]L; lactam 2-C)", ">32 µg/mL"],
  ["CCCCCCC[C@@H](O)CC(=O)N[C@H](CCN)C(=O)N[C@H]1CCNC(=O)[C@H](CC(C)C)NC(=O)[C@H](CCN)NC(=O)[C@H](CCN)NC(=O)[C@H](CC(C)C)NC(=O)[C@@H](Cc2ccc(-c3ccccc3)cc2)NC(=O)[C@H](CCN)NC1=O [compound 5010] ({Decanoyl(3R-OH)}-[dDab][Dab][Dab][dBip]L[Dab][Dab]L; lactam 2-C)", "2 µg/mL"],
  ["CCCCCCC[C@@H](O)CC(=O)N[C@H](CCN)C(=O)N[C@H]1CCNC(=O)[C@H](CC(C)C)NC(=O)[C@H](CN)NC(=O)[C@H](CCN)NC(=O)[C@H](CC(C)C)NC(=O)[C@@H](Cc2ccccc2)NC(=O)[C@H](CCN)NC1=O [compound 987] ({Decanoyl(3R-OH)}-[dDab][Dab][Dab][dF]L[Dab][Dap]L; lactam 2-C)", "16 µg/mL"]
]}

###

The following molecules are shown together with reported CC50 at 24 h values.
assay.comment: in vitro
protocol.conditions: human
Protocol: Cytotoxicity of the synthesised peptides was evaluated by comparison with commercially available colistin (polymyxin E), polymyxin B (Sigma chemical Co., St. Louis, Mo., U.S.A.) and synthetic octapeptin C4 by conducting lactate dehydrogenase (LDH) assay. CC50 values calculated based on curve fitting of dose dependent inhibition of cell growth represented the cytotoxicity of the peptide. […]
Positions of bridges follow the written chain, without caps; N, C: chain ends. Non-standard residues stand in square brackets, D forms with d. Residues, ends and D or L forms follow the SMILES beside them. *: point of attachment. Benzoyl(4-Ph) = O=C(c1ccc(-c2ccccc2)cc1)*; Bip = N[C@@H](Cc1ccc(-c2ccccc2)cc1)C(=O)O; Decanoyl(3R-OH) = CCCCCCC[C@@H](O)CC(=O)*; dBip = N[C@H](Cc1ccc(-c2ccccc2)cc1)C(=O)O; Phe(4-NH2) = Nc1ccc(C[C@H](N)C(=O)O)cc1; dOrn = NCCC[C@@H](N)C(=O)O; dDab = NCC[C@@H](N)C(=O)O; X8 = CC(C)CCCC(C)CC(=O)*; Dab = NCC[C@H](N)C(=O)O; Dap = NC[C@H](N)C(=O)O

{"columns": ["molecule", "CC50 at 24 h"],
 "data": [
  ["CCCCCCC[C@@H](O)CC(=O)N[C@H](CCN)C(=O)N[C@H]1CCNC(=O)[C@H](CO)NC(=O)[C@H](CCN)NC(=O)[C@H](CCN)NC(=O)[C@H](CC(C)C)NC(=O)[C@@H](Cc2ccccc2)NC(=O)[C@H](CCN)NC1=O [compound 6510] ({Decanoyl(3R-OH)}-[dDab][Dab][Dab][dF]L[Dab][Dab]S; lactam 2-C)", "149 µM"],
  ["CCCCCCC[C@@H](O)CC(=O)N[C@H](CCN)C(=O)N[C@H]1CCNC(=O)[C@H]([C@@H](C)O)NC(=O)[C@H](CCN)NC(=O)[C@H](CCNC(=O)[C@@H](N)CCCNC(=N)N)NC(=O)[C@H](CC(C)C)NC(=O)[C@@H](Cc2ccccc2)NC(=O)[C@H](CCN)NC1=O [compound 6656] ({Decanoyl(3R-OH)}-[dDab][Dab][Dab][dF]L[Dab](Arg)[Dab]T; lactam 2-C)", "> 300 µM"],
  ["CCCCCCC[C@@H](O)CC(=O)N[C@H](CCN)C(=O)N[C@H]1CCNC(=O)[C@H](CC(C)C)NC(=O)[C@H](CCN)NC(=O)[C@H](CCN)NC(=O)[C@H](CC(C)C)NC(=O)[C@@H](Cc2ccccc2)NC(=O)[C@H](Cc2ccc(N)cc2)NC1=O [compound 8635] ({Decanoyl(3R-OH)}-[dDab][Dab][Phe(4-NH2)][dF]L[Dab][Dab]L; lactam 2-C)", "219 µM"],
  ["CCCCCCC[C@@H](O)CC(=O)N[C@H](CCN)C(=O)N[C@H]1CCNC(=O)[C@H]([C@@H](C)O)NC(=O)[C@H](CN)NC(=O)[C@H](CCN)NC(=O)[C@H](CC(C)C)NC(=O)[C@@H](Cc2ccccc2)NC(=O)[C@H](CCN)NC1=O [compound 5386] ({Decanoyl(3R-OH)}-[dDab][Dab][Dab][dF]L[Dab][Dap]T; lactam 2-C)", "154 µM"],
  ["CC(C)CCCC(C)CC(=O)N[C@H](CCN)C(=O)N[C@H]1CCNC(=O)[C@H](CC(C)C)NC(=O)[C@H](CCN)NC(=O)[C@H](CCN)NC(=O)[C@H](Cc2ccccc2)NC(=O)[C@@H](CC(C)C)NC(=O)[C@H](CCN)NC1=O (stereo partly drawn) [compound 6515] (X8-[dDab][Dab][Dab][dL]F[Dab][Dab]L; lactam 2-C)", "80 µM"],
  ["CCCCCCC[C@@H](O)CC(=O)N[C@H](CCCN)C(=O)N[C@H]1CCNC(=O)[C@H](CC(C)C)NC(=O)[C@H](CCN)NC(=O)[C@H](CCN)NC(=O)[C@H](Cc2ccccc2)NC(=O)[C@@H](CC(C)C)NC(=O)[C@H](CCN)NC1=O [compound 6428] ({Decanoyl(3R-OH)}-[dOrn][Dab][Dab][dL]F[Dab][Dab]L; lactam 2-C)", "137 µM"],
  ["CCCCCCC[C@@H](O)CC(=O)N[C@H](CCN)C(=O)N[C@H]1CCNC(=O)[C@H]([C@@H](C)O)NC(=O)[C@H](CCNC(=O)[C@@H](N)CCCNC(=N)N)NC(=O)[C@H](CCN)NC(=O)[C@H](CC(C)C)NC(=O)[C@@H](Cc2ccccc2)NC(=O)[C@H](CCN)NC1=O [compound 5603] ({Decanoyl(3R-OH)}-[dDab][Dab][Dab][dF]L[Dab][Dab](Arg)T; lactam 2-C)", "103 µM"],
  ["CCCCCCC[C@@H](O)CC(=O)N[C@H](CCN)C(=O)N[C@H]1CCNC(=O)[C@H](Cc2ccccc2)NC(=O)[C@H](CN)NC(=O)[C@H](CCN)NC(=O)[C@H](CC(C)C)NC(=O)[C@@H](Cc2ccc(-c3ccccc3)cc2)NC(=O)[C@H](CCN)NC1=O [compound 5384] ({Decanoyl(3R-OH)}-[dDab][Dab][Dab][dBip]L[Dab][Dap]F; lactam 2-C)", "24 µM"],
  ["CC(C)C[C@@H]1NC(=O)[C@H](CCN)NC(=O)[C@H](CCN)NC(=O)[C@H](Cc2ccccc2)NC(=O)[C@@H](CC(C)C)NC(=O)[C@H](CCN)NC(=O)[C@@H](NC(=O)[C@@H](CCN)NC(=O)c2ccc(-c3ccccc3)cc2)CCNC1=O [compound 6518] ({Benzoyl(4-Ph)}-[dDab][Dab][Dab][dL]F[Dab][Dab]L; lactam 2-C)", "180 µM"],
  ["CCCCCCC[C@@H](O)CC(=O)N[C@H](CCN)C(=O)N[C@H]1CCNC(=O)[C@H]([C@@H](C)O)NC(=O)[C@H](CCN)NC(=O)[C@H](CCN)NC(=O)[C@H](Cc2ccc(-c3ccccc3)cc2)NC(=O)[C@@H](Cc2ccccc2)NC(=O)[C@H](CCN)NC1=O [compound 5607] ({Decanoyl(3R-OH)}-[dDab][Dab][Dab][dF][Bip][Dab][Dab]T; lactam 2-C)", "19 µM"],
  ["CCCCCCC[C@@H](O)CC(=O)N[C@H](Cc1c[nH]c2ccccc12)C(=O)N[C@H]1CCNC(=O)[C@H]([C@@H](C)O)NC(=O)[C@H](CCN)NC(=O)[C@H](CCN)NC(=O)[C@H](CC(C)C)NC(=O)[C@@H](Cc2ccccc2)NC(=O)[C@H](CCN)NC1=O [compound 6394] ({Decanoyl(3R-OH)}-[dW][Dab][Dab][dF]L[Dab][Dab]T; lactam 2-C)", "> 300 µM"],
  ["CCCCCCC[C@@H](O)CC(=O)N[C@H](CCN)C(=O)N[C@H]1CCNC(=O)[C@H](CCC(=O)O)NC(=O)[C@H](CCN)NC(=O)[C@H](CCN)NC(=O)[C@H](CC(C)C)NC(=O)[C@@H](Cc2ccccc2)NC(=O)[C@H](CCN)NC1=O [compound 6512] ({Decanoyl(3R-OH)}-[dDab][Dab][Dab][dF]L[Dab][Dab]E; lactam 2-C)", "> 300 µM"],
  ["CCCCCCC[C@@H](O)CC(=O)N[C@H](CCN)C(=O)N[C@H]1CCNC(=O)[C@H]([C@@H](C)O)NC(=O)[C@H](CCN)NC(=O)[C@H](CCN)NC(=O)[C@H](CC(C)C)NC(=O)[C@@H](Cc2ccccc2)NC(=O)[C@H](CCNC(=O)[C@@H](N)CCCNC(=N)N)NC1=O [compound 6657] ({Decanoyl(3R-OH)}-[dDab][Dab][Dab](Arg)[dF]L[Dab][Dab]T; lactam 2-C)", "> 300 µM"]
]}
